Test: anti-His antibody binders, primary screen, artefact control for SMM control protein annotation, biochemical, small-molecule microarray, 635 nm fluorescence (AID 1128);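 further: score merges feature fluorescence with signal-to-noise for each printed compound spot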
Details: anti-His Alexa647 antibody binding, higher = more signal
Listing of entries alongside the reported composite z-score.
experimental.endpoint: composite z-score

{"compound": "O=C1O[C@H](c2ccccc2)[C@H](c2ccccc2)N2[C@H]1[C@@H](C(=O)Nc1nc3ccccc3s1)[C@]1(C(=O)Nc3ccc(C#CC4(O)CCCCCC4)cc31)[C@H]2c1ccc(OCCO)cc1", "experimental.endpoint": "composite z-score", "recorded.measurement": 2}
{"compound": "COCCCN1C(=O)[C@@]2(c3ccc([N+](=O)[O-])cc3)CC(=O)N(C3CCCCC3)[C@@H]2c2ccc(CO)cc21", "experimental.endpoint": "composite z-score", "recorded.measurement": 0.245}
{"compound": "CC1CC/C=C\\[C@H]2OC34C=CCN(c5ccc(Cl)cc5)C(=O)[C@H]3N(CCO)C(=O)[C@]4(C)C2C(=O)O1 (some centres not stated)", "experimental.endpoint": "composite z-score", "recorded.measurement": 3.56}
{"compound": "CC[C@@H]1C=C(C(=O)O)[C@H](c2ccco2)N1S(=O)(=O)c1ccc(C)cc1", "experimental.endpoint": "composite z-score", "recorded.measurement": 0.2}
{"compound": "C=CCOC(=O)[C@H]1[C@@H]2C(=O)O[C@@H](c3ccccc3)[C@@H](c3ccccc3)N2[C@@H](c2ccc(OCCOC(=O)[C@@H]3C[C@@H]4C(=O)N5CCC[C@H]5C(=O)N4[C@@H]3c3cccc(OCCO)c3)cc2)[C@]12C(=O)Nc1ccccc12", "experimental.endpoint": "composite z-score", "recorded.measurement": 2.53}
{"compound": "CN1C(=O)C2C=CC(C(O)c3ccc(I)cc3)N(N3CCCCC3)C2C1=O (configuration not stated)", "experimental.endpoint": "composite z-score", "recorded.measurement": 1.09}
{"compound": "[N-]=[N+]=NCc1ccccc1[C@H]1OC(c2ccc(OCCCO)cc2)=N[C@@]1(Cc1ccccc1)C(=O)NCc1ccccc1", "experimental.endpoint": "composite z-score", "recorded.measurement": 0.517}
{"compound": "COC(=O)C(CC#Cc1ccc2c(c1)[C@]1(C(=O)N2)[C@H](C(=O)O)[C@H]2C(=O)O[C@H](c3ccccc3)[C@H](c3ccccc3)N2[C@@H]1c1ccc(O)cc1)C(=O)OC", "experimental.endpoint": "composite z-score", "recorded.measurement": 1.54}
{"compound": "O=C1c2ccccc2[C@@]2(Cc3ccccc3N(CCN3CCOCC3)C2=O)[C@H](c2ccc(CO)cc2)N1Cc1ccccc1", "experimental.endpoint": "composite z-score", "recorded.measurement": -0.784}
{"compound": "[N-]=[N+]=NCc1ccccc1[C@@H]1OC(c2ccc(OCCCO)cc2)=N[C@]1(Cc1ccccc1N=[N+]=[N-])C(=O)N1CCOCC1", "experimental.endpoint": "composite z-score", "recorded.measurement": 2.12}
{"compound": "O=C1OCC=C[C@H]2OC34C=CCN(c5ccc6ccccc6c5)C(=O)[C@H]3N(CCCCCCO)C(=O)[C@@H]4[C@@H]12 (some centres not stated)", "experimental.endpoint": "composite z-score", "recorded.measurement": 2.67}
{"compound": "O=C1OCCC/C=C\\[C@H]2OC34C=CCN(c5ccc6ccccc6c5)C(=O)[C@H]3N(CCCCCCO)C(=O)[C@@H]4C12 (some centres not stated)", "experimental.endpoint": "composite z-score", "recorded.measurement": 1.79}
{"compound": "COc1ccc([Si](C)(C)[C@H]2[C@H](CCO)O[C@@]3(C(=O)N(C)c4c(Br)cc(C)cc43)[C@@H]2C)cc1", "experimental.endpoint": "composite z-score", "recorded.measurement": 0.494}
{"compound": "C[N+](C)(C)CCCCNC(=O)[C@H]1C[C@H]2C(=O)N[C@@H](Cc3ccccc3)C(=O)N2[C@H]1c1ccc(O)cc1", "experimental.endpoint": "composite z-score", "recorded.measurement": 1.94}
{"compound": "COCCCNC(=O)[C@@]1(Cc2ccccc2N=[N+]=[N-])N=C(c2ccc(OCCCO)cc2)O[C@H]1c1ccccc1N=[N+]=[N-]", "experimental.endpoint": "composite z-score", "recorded.measurement": 1.73}
{"compound": "O=C1c2ccccc2[C@@]2(Cc3ccccc3N(CC(F)(F)F)C2=O)[C@H](c2ccc(CO)cc2)N1Cc1ccccc1Cl", "experimental.endpoint": "composite z-score", "recorded.measurement": 0.181}
{"compound": "Cc1ccc(S[C@]2(C(=O)NCCN3CCOCC3)CC(=O)N(Cc3ccccc3)[C@@H]2c2ccc(CO)cc2I)cc1", "experimental.endpoint": "composite z-score", "recorded.measurement": 1.75}
{"compound": "CN(C)C(=O)[C@@]1(Cc2ccccc2)N=C(c2ccc(OCCCO)cc2)O[C@H]1c1ccccc1N=[N+]=[N-]", "experimental.endpoint": "composite z-score", "recorded.measurement": 2.01}
{"compound": "CN(C)C(=O)[C@@]1(Cc2ccccc2CN=[N+]=[N-])N=C(c2ccc(OCCCO)cc2)O[C@H]1c1ccccc1", "experimental.endpoint": "composite z-score", "recorded.measurement": 2.77}
{"compound": "C=C(COC)/C(=C/C[C@@H](OC(C)=O)c1ccc(OCCO)cc1)c1cc(C(=O)OC)ccc1OC", "experimental.endpoint": "composite z-score", "recorded.measurement": 0.531}
{"compound": "COc1ccc(C(=O)O[C@H]2CC[C@]3(C)C4=C(CCC3C2(C)C)[C@]2(C)CC[C@H]([C@H](C)CCCC(C)C)[C@@]2(C)CC4)cc1 (some centres not stated)", "experimental.endpoint": "composite z-score", "recorded.measurement": 0.541}
{"compound": "COc1ccc(COC2OC[C@]3(C)[C@H]4C5=C(CN3C(=O)OC(C)(C)C)[C@H](C)C(CO)C(CO)C5CC[C@@H]24)cc1 (some centres not stated)", "experimental.endpoint": "composite z-score", "recorded.measurement": 1.08}
{"compound": "CC1CC/C=C\\[C@H]2OC34C=CCN(C(C)(C)C)C(=O)[C@H]3N(CCCCCCO)C(=O)[C@@H]4C2C(=O)O1 (some centres not stated)", "experimental.endpoint": "composite z-score", "recorded.measurement": 1.65}
{"compound": "COCCOC(=O)N1C(=O)[C@@]2(c3cc(C#CCCO)ccc31)[C@H](C(=O)N1CCc3cc(OC)c(OC)cc3C1)[C@H]1C(=O)O[C@H](c3ccccc3)[C@H](c3ccccc3)N1[C@@H]2c1ccc(O)cc1", "experimental.endpoint": "composite z-score", "recorded.measurement": 1.89}
{"compound": "COCCOC(=O)N1C(=O)[C@@]2(c3cc(C#CC4=CCCCC4)ccc31)[C@H](C(=O)N1CCc3cc(OC)c(OC)cc3C1)[C@H]1C(=O)O[C@H](c3ccccc3)[C@H](c3ccccc3)N1[C@@H]2c1ccc(OCCO)cc1", "experimental.endpoint": "composite z-score", "recorded.measurement": 1.2}
{"compound": "C=CC[C@]1(C(=O)NCCCOC)N=C(c2ccc(OCCCO)cc2)O[C@H]1c1ccccc1N=[N+]=[N-]", "experimental.endpoint": "composite z-score", "recorded.measurement": 2.54}
{"compound": "C=C(COC)/C(=C/C[C@@H](OC(C)=O)c1ccc(CO)o1)c1cnc2ccccc2c1", "experimental.endpoint": "composite z-score", "recorded.measurement": 0.562}

---

Test: CREB reporter modulators without forskolin, primary screen, cell-based, PC12, CRE-LacZ reporter, unstimulated (AID 1145)
Conditions: no forskolin, luminescence, 4.5 h, higher = more signal, called active from +8 up or from −8 down

{"compound": "O=C1[C@H]2C=C(Br)[C@H](C[C@@H]2c2ccccc2)[C@@]12CO2", "z-score": 1.58}
{"compound": "COc1cc(OC)c(C(O)C2C=CC3C(=O)NC(=O)C3N2Nc2ccc(Cl)cc2Cl)cc1Br (stereo unspecified)", "z-score": 0.433}
{"compound": "CCCCCN1CC=CC23O[C@@H]4/C=C\\CCCOC(=O)C4[C@H]2C(=O)N(CCCO)[C@@H]3C1=O (stereo partly specified)", "z-score": -0.619}
{"compound": "CN1C2C=C(CCCO)C(C3C(=O)N(C(N)=O)C(=O)C32)C1c1ccc(CN2CCCC2)cc1 (stereo unspecified)", "z-score": -0.83}
{"compound": "C[N+](C)(C)CCCCNC(=O)[C@H]1C[C@H]2C(=O)N[C@@H](Cc3ccccc3)C(=O)N2[C@H]1c1ccc(O)cc1", "z-score": 0.143}
{"compound": "C=C(CCCC)C(=O)CC[C@H](OC(C)=O)c1cccc(OCCO)c1", "z-score": 0.914}
{"compound": "CC(C)C(CO)N1C(=O)[C@@H]2[C@H]3C(=O)OCC=C[C@H]3OC23C=CCN(C(C)C)C(=O)[C@@H]13 (stereo partly specified)", "z-score": -0.757}
{"compound": "CN1C(=O)C2C=CC(C(O)c3ccc(I)cc3)N(N3CCCCC3)C2C1=O (stereo unspecified)", "z-score": 0.246}
{"compound": "CCCN1C(=O)[C@]2(CCS(=O)(=O)c3ccccc3)N=C(c3ccc(OCCCO)cc3)O[C@@H]2c2ccccc21", "z-score": -0.254}
{"compound": "CCCC#C[Si](O[C@H](CC)c1cn([C@H](CO)Cc2ccccc2)nn1)(C(C)C)C(C)C", "z-score": -0.388}
{"compound": "CC(C)N1C(=O)c2ccccc2[C@](C)(C(=O)NCc2ccccc2)[C@@H]1c1ccc(CO)cc1", "z-score": 0.558}
{"compound": "CN1C(=O)C2C=CC(C(O)C3CC=CCC3)N(NC(=O)OC(C)(C)C)C2C1=O (stereo unspecified)", "z-score": 0.626}
{"compound": "COc1ccc(C(=O)Nc2ccc(CN3C(=O)[C@@]4(O[C@@H](CC(=O)N5CCC[C@H]5CO)[C@H]([Si](C)(C)c5ccc(OC)cc5)[C@H]4C)c4ccccc43)cc2)cc1", "z-score": 1.88}
{"compound": "C[C@]1(C(=O)NC2CC2)c2ccccc2C(=O)N(Cc2cc(C(F)(F)F)cc(C(F)(F)F)c2)[C@H]1c1ccc(CO)cc1", "z-score": -0.825}
{"compound": "COCCOC(=O)N1C(=O)[C@@]2(c3cc(C#Cc4ccc(OC)cc4)ccc31)[C@H](c1ccc(O)cc1)N1[C@H](c3ccccc3)[C@H](c3ccccc3)OC(=O)[C@H]1[C@@H]2C(=O)NC[C@H](O)c1ccccc1", "z-score": -1.15}
{"compound": "[N-]=[N+]=Nc1ccccc1C[C@]1(C(=O)NCC(O)CO)N=C(c2ccc(OCCCO)cc2)O[C@H]1c1ccccc1N=[N+]=[N-] (stereo partly specified)", "z-score": 1.05}
